# Tested on: MDA-MB-468 spheroids with HUVEC/MSC, viability
# assay: Anticancer human tumor MDA-MB-468 cell line growth inhibition [PI3K];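 also: spheroids exposed to agents for seven days before readout; 100% = DMSO vehicle control viability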
# condition.notes: second compound 0.1 µM; first compound 3.16 µM; active compounds read low

compound	unit.descriptor	viability, T/C
CC1(C)CCC(Nc2ncc(C(F)(F)F)c(-c3c[nH]c4c(P(C)(C)=O)c(C#N)ccc34)n2)CN1 (stereo not drawn) + CC(Nc1ccc2c(c1)OCCn1cc(N3C(=O)OCC3C(F)F)nc1-2)C(N)=O	%	7.73
Cn1ncc(Cl)c1-c1cc(C(=O)NC(CN)Cc2cccc(F)c2)sc1Cl (stereo not drawn) + CC(Nc1ncnc2nc[nH]c12)c1cc2cccc(Cl)c2c(=O)n1-c1ccccc1	%	29.7
CNC(=O)c1ccc(N2C(=S)N(c3ccc(C#N)c(C(F)(F)F)c3)C(=O)C2(C)C)cc1F + Cc1nc(NC(=O)N2CCCC2C(N)=O)sc1-c1ccnc(C(C)(C)C(F)(F)F)c1	%	82.8

###

# Test system: MDA-MB-468 spheroids with HUVEC/MSC, viability
# assay: Anticancer human tumor MDA-MB-468 cell line growth inhibition [PI3K];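 also: spheroids exposed to agents for seven days before readout; 100% = DMSO vehicle control viability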
# condition.notes: second compound 0.316 µM; first compound 10 µM; active compounds read low

compound	viability, T/C
C[C@@H](NC(=O)c1ncnc(N)c1Cl)c1ncc(C(=O)Nc2cc(C(F)(F)F)c(Cl)cn2)s1 + Cc1nc(NC(=O)N2CCCC2C(N)=O)sc1-c1ccnc(C(C)(C)C(F)(F)F)c1	68.6%
CC(C)NCC(C(=O)N1CCN(c2ncnc3c2C(C)CC3O)CC1)c1ccc(Cl)cc1 (stereo not drawn) + CC(Nc1ccc2c(c1)OCCn1cc(N3C(=O)OCC3C(F)F)nc1-2)C(N)=O	22%
CCCS(=O)(=O)Nc1ccc(F)c(C(=O)c2c[nH]c3ncc(-c4ccc(Cl)cc4)cc23)c1F + COc1c(OCCCN2CCOCC2)ccc2c3n(c(=NC(=O)c4cnc(N)nc4)nc12)CCN3	8.09%

###

# Test system: MDA-MB-468 spheroids with HUVEC/MSC, viability
# assay: Anticancer human tumor MDA-MB-468 cell line growth inhibition [PI3K];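 also: spheroids exposed to agents for seven days before readout; 100% = DMSO vehicle control viability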
# condition.notes: compound 0.1 µM; active compounds read low
# Description: Combinatorial screen of targeted agents with the PI3K inhibitors inavolisib, alpelisib, duvelisib, and copanlisib in multi-cell type tumor spheroids A high-throughput screen of multi-cell type tumor spheroids was designed to identify active combinations of targeted small molecules and PI3K pathway inhibitors. […] Compounds. […] If the clinical Cmax for an agent had not been determined, the highest concentration tested was 10 microM. […]

compound	viability, T/C
CC(Cn1ccc(-c2ccc(C#N)c(Cl)c2)n1)NC(=O)c1cc(C(C)O)[nH]n1 (stereo not given)	87.6% [middle of 4 runs]
CC(C)n1nc(-c2ccc3oc(N)nc3c2)c2c(N)ncnc21	19.3% [middle of 4 runs]
CNC(=O)c1ccc(N2C(=S)N(c3ccc(C#N)c(C(F)(F)F)c3)C(=O)C2(C)C)cc1F	97% [middle of 4 runs]
COc1c(OCCCN2CCOCC2)ccc2c3n(c(=NC(=O)c4cnc(N)nc4)nc12)CCN3	57.7% [middle of 8 runs]
C=CC(=O)N1CCN(c2nc(=O)n(-c3c(C)ccnc3C(C)C)c3nc(-c4c(O)cccc4F)c(F)cc23)C(C)C1 (stereo not given)	96.2% [middle of 4 runs]

###

# System: MDA-MB-468 spheroids with HUVEC/MSC, viability
# assay: Anticancer human tumor MDA-MB-468 cell line growth inhibition [PI3K];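 also: spheroids exposed to agents for seven days before readout; 100% = DMSO vehicle control viability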
# condition.notes: second compound 0.01 µM; first compound 0.01 µM; active compounds read low
Listed below: viability, T/C values for each entry.

compound	system	viability, T/C, %
CC(C)n1nc(-c2ccc3oc(N)nc3c2)c2c(N)ncnc21 + CC(Nc1ccc2c(c1)OCCn1cc(N3C(=O)OCC3C(F)F)nc1-2)C(N)=O	MDA-MB-468 spheroids with HUVEC/MSC, viability	99
Cn1ncnc1[C@H]1c2n[nH]c(=O)c3cc(F)cc(c23)N[C@@H]1c1ccc(F)cc1 + COc1c(OCCCN2CCOCC2)ccc2c3n(c(=NC(=O)c4cnc(N)nc4)nc12)CCN3	MDA-MB-468 spheroids with HUVEC/MSC, viability	74.7
CCN1CCN(Cc2ccc(Nc3ncc(F)c(-c4cc(F)c5nc(C)n(C(C)C)c5c4)n3)nc2)CC1 + CC(Nc1ccc2c(c1)OCCn1cc(N3C(=O)OCC3C(F)F)nc1-2)C(N)=O	MDA-MB-468 spheroids with HUVEC/MSC, viability	117
CC(=O)c1c(C)c2cnc(Nc3ccc(N4CCNCC4)cn3)nc2n(C2CCCC2)c1=O + COc1c(OCCCN2CCOCC2)ccc2c3n(c(=NC(=O)c4cnc(N)nc4)nc12)CCN3	MDA-MB-468 spheroids with HUVEC/MSC, viability	86.2
CCN1CCN(Cc2ccc(Nc3ncc(F)c(-c4cc(F)c5nc(C)n(C(C)C)c5c4)n3)nc2)CC1 + COc1c(OCCCN2CCOCC2)ccc2c3n(c(=NC(=O)c4cnc(N)nc4)nc12)CCN3	MDA-MB-468 spheroids with HUVEC/MSC, viability	88.8
Cn1ncnc1[C@H]1c2n[nH]c(=O)c3cc(F)cc(c23)N[C@@H]1c1ccc(F)cc1 + CC(Nc1ccc2c(c1)OCCn1cc(N3C(=O)OCC3C(F)F)nc1-2)C(N)=O	MDA-MB-468 spheroids with HUVEC/MSC, viability	85.6
CC(C)n1nc(-c2ccc3oc(N)nc3c2)c2c(N)ncnc21 + COc1c(OCCCN2CCOCC2)ccc2c3n(c(=NC(=O)c4cnc(N)nc4)nc12)CCN3	MDA-MB-468 spheroids with HUVEC/MSC, viability	81.1
CC(=O)c1c(C)c2cnc(Nc3ccc(N4CCNCC4)cn3)nc2n(C2CCCC2)c1=O + CC(Nc1ccc2c(c1)OCCn1cc(N3C(=O)OCC3C(F)F)nc1-2)C(N)=O	MDA-MB-468 spheroids with HUVEC/MSC, viability	110
